The reported measurements were obtained from PubChem BioAssay (NCI).

Tested on: NCI-H23 lung
Assay: NCI-60 one-dose screen, 48 h
Settings: 10 µM
The panel holds about 83,000 compounds, 20% with a hit somewhere; the sample as a whole holds those more often. Calls of active or inactive are those of the source. How the source made its calls: active means growth percent below 10; inactive means the rest.
Select the matching outcome among yes (1) for active, no (0) for inactive

Solved entries (count: 10):
COMPOUND	CLASS
CC(C)C[C@H](NC(=O)Cn1ccc2ccccc2c1=O)B(O)O	no (0)
C=CCNCCCN1C(=O)c2ccc3c4c(ccc(c24)C1=O)C(=O)N(CCCNCC=C)C3=O	yes (1)
C[C@]12CC[C@H]3[C@@H](CCC4=CC(=O)CC[C@@]43C)[C@@H]1CC[C@@H]2c1csc(N)n1	no (0)
CCCC(C)c1ccc(OCCCCCCN2CCNCC2)cc1 (centres undefined)	no (0)
O=c1c2cccc3c(Nc4ccc(Br)cn4)ccc(c32)c2nc3ccccc3n12	no (0)
N#CCC1CCCC1	no (0)
COc1cc(OC)cc(-c2ccc(-c3ccc(C(=N)N)cn3)o2)c1	no (0)
CCOc1nc(-c2ccccc2)cc2c(O)c(C(=O)NCCCO)[nH]c(=O)c12	no (0)
Cc1ccc(-n2nnc3c(sc4ccccc43)c2=O)cc1	no (0)
CCCCn1c(=O)[nH]c2c(c1=O)C(c1ccc(Cl)cc1)c1c([nH]c(=O)n(CCCC)c1=O)N2	no (0)

Request: Hi team, can someone confirm the assay call for CCc1nn2c(-c3cc(OC)c(OC)c(OC)c3)c(-c3cc(OC)c(OC)c(OC)c3)nc2s1 ?
Response: no (0)

Request: Hi team, can someone confirm the assay call for O=C(CCc1ccccc1)N1CCN(C(=O)CCc2ccccc2)CC1 ?
Response: no (0)

Request: Hi team, can someone confirm the assay call for O=C(Nc1ccc(OCc2nnc(-c3ccccc3)o2)c(F)c1)Nc1ccc(Cl)c(Cl)c1 ?
Response: no (0)

Request: Hi team, can someone confirm the assay call for N#Cc1c(-c2ccccc2)nc(SCC(=O)N2CCOCC2)[nH]c1=O ?
Response: no (0)

Request: Hi team, can someone confirm the assay call for Cc1ccc2c3c(cccc13)-c1ccccc1C2=O ?
Response: no (0)

Request: Hi team, can someone confirm the assay call for COc1ccc2nc(/C=C/c3ccc(N(C)C)cc3)sc2c1 ?
Response: no (0)

Request: Hi team, can someone confirm the assay call for Nc1ccccc1NC(=O)CCCCCCC(=O)Nc1ccc2c(c1)/C(=C/c1ccc[nH]1)C(=O)N2 ?
Response: no (0)

Request: Hi team, can someone confirm the assay call for NC1CCC(Nc2nc(NCc3ccc(-c4ccco4)nc3)c3ncn(C4CCCC4)c3n2)CC1 (centres undefined) ?
Response: yes (1)

Request: Hi team, can someone confirm the assay call for O=c1oc2c3ccc4cnccc4c3[nH]c2c2ccccc12 ?
Response: no (0)

----------
Tested on: PC-3 prostate
Assay: NCI-60 one-dose screen, 48 h (100 = growth as untreated, 0 = no growth, -100 = all killed)
Conditions: 10 µM
Description: Growth inhibition of the PC-3 human tumor cell line is measured as a screen for anti-cancer activity. Cells are grown in 96 well plates and exposed to the test compound for 48 hours. Compounds are tested at a single concentration, which is 10^-5 M for most compounds. The reported endpoint is percent growth (GI% or GIPRCNT), where numbers from 0 - 100% represent growth inhibition, and numbers from -100% - 0 represent cell death. For example, a value of 40 represents 60% growth inhibition. […]
Compounds without any hit were thinned out: in the full panel of roughly 83,000, 20% have a hit.
Lab note: anything with growth at or over 60% counts as label 1; the rest go in label 0.

Solved entries (count: 4):
COMPOUND	CLASS
O=C(Nc1ccc(CN2CCOCC2)cc1)c1ccc(-c2cc(Cl)ccc2Cl)o1	label 0
COc1ccc(Nc2ccnc(N3CCN(c4ccnc5cc(Cl)ccc45)CC3)n2)cc1	label 0
O=[N+]([O-])C1CC2C=CC1C2 (stereo not given)	label 1
Oc1[nH]c2ccccc2c1/C=c1/cc2c(c(-c3ccc(C(F)(F)F)cc3)n1)=Nc1ccccc1-2	label 0

Request: Could you please find out whether Cn1c([N+](=O)[O-])cnc1/C=C1\Oc2ccc(Br)cc2C1=O has growth that meets 60% or exceeds it?
Response: label 0

Request: Could you please find out whether COc1cc2c3c(cccc3c1)C(=O)N(CCN1CCCC1)C2=O has growth that meets 60% or exceeds it?
Response: label 0

Request: Could you please find out whether COc1ccc(-c2nc(NC(=O)CS(=O)(=O)c3ccc(F)cc3)sc2C)cc1 has growth that meets 60% or exceeds it?
Response: label 0

Request: Could you please find out whether C[N+]1(CC2CO2)CCCCCC1 (stereo not given) has growth that meets 60% or exceeds it?
Response: label 1

Request: Could you please find out whether CC(C)c1[nH]nc2c(NCc3ccc(-c4ccccn4)cc3)nc(SCCN)nc12 has growth that meets 60% or exceeds it?
Response: label 0
